Record form. Attribute: GI50. Fill in for each entry.
Test system: K562
method: NCI tumour cell line growth inhibition, 48 h
Activity calls are given as the source filed them. No stated cut-off is given here; in the data, active = GI50 up to about 1.1 µM and inactive = higher. Where a SMILES comes first, the peptide text is derived from it. [ ]: non-standard residue; d: D form. The star is where a group is joined. Cbz = O=C(OCc1ccccc1)*; Aib = CC(C)(N)C(=O)O; OBn = c1ccc(CO*)cc1

The compound listed as c1c2c(cc3c1OCO3)-c1cc3ccc4c(c3c[n+]1CC2)OCO4 [COPTISINE CHLORIDE] has a reported GI50 of 0.486 µM (active)

Record CCCCCC(=O)OCC(=O)[C@H]1[C@H](C)C[C@H]2[C@@H]3C[C@H](F)C4=C/C(=N/OC(=O)c5cccc6c(=O)c7ccccc7[nH]c56)C=C[C@]4(C)[C@H]3[C@@H](O)C[C@@]21C , field GI50: 46.5 µM (inactive)

Entry under test: CNC(=O)c1ccccc1-[s+]1c2ccccc2c(=O)n1C (stereo not given) . Its GI50 was > 100 µM (inactive)

For record CCOc1ccncc1[N+](=O)[O-] the listed GI50 is > 100 µM (inactive)

So for Cc1ccc(C)c(NC(=O)c2cc(-c3ccc([N+](=O)[O-])cc3)nc(N)n2)c1 , the logged GI50 turned out to be > 100 µM (inactive)

In plain terms, CC(=O)OC1C(COC(N)=O)OC(n2c(-c3ccc(C)cc3)cc(-c3ccccc3)c(C#N)c2=O)C(OC(C)=O)C1OC(C)=O (stereo not given) has a documented GI50 of > 100 µM (inactive)

Please fill in: GI50 reported for CC(C)(C)[Si](C)(C)OCC1CCC(n2cnc3c(NC(=O)c4ccccc4)ncnc32)O1 (stereo not given) = 18.7 µM (inactive)

The compound listed as CCOc1ccc(NC(=O)C2=C(C)NC(C)=C(C(=O)Nc3ccc(OCC)cc3)C2c2ccc(O)c(OC)c2)cc1 shows GI50 equal to 40.8 µM (inactive)

Consider CC(NC(=O)C(C)(C)NC(=O)C(CC(=O)OCc1ccccc1)NC(=O)OCc1ccccc1)C(N)=O (stereo not given) (Cbz-Asp(OBn)-[Aib]-Ala-NH2; configuration not given here) . Its measured GI50 is > 100 µM (inactive)

Looking up CN1CCC2(CC1)C(=O)N(N1CCCCCC1)C(=O)N2c1ccccc1 , I see its GI50 listed as > 100 µM (inactive)

According to the records, this compound COc1c2c(cc3oc(C)cc(=O)c13)OC(=N)C(C(N)=O)C2CC(=O)c1ccc(N)cc1 (stereo not given) displays GI50 of > 100 µM (inactive)

Summary for this compound, CSc1ncc2c(n1)-c1ccccc1OC2N1CCOCC1 (stereo not given) : GI50 is 56.1 µM (inactive)

Measured GI50 of CC(C)(C(=O)N(C(=O)N1CCN(c2ccccc2)CC1)S(=O)(=O)c1ccccc1)c1ccc(Cl)cc1 : 5.68 µM (inactive)

Note to self: GI50 recorded for CC(C)C(Nc1c2ccccc2[n+]([O-])c2ccccc12)C(=O)O (stereo not given) was 38.5 µM (inactive)

Measured GI50 of C=CCC1=C(C)C[C@@H]2CCC(=O)C=C12 : > 100 µM (inactive)

// recorded GI50 for Cn1ccc(C(=O)N2CCSC2=S)c(OCc2ccccc2)c1=O : > 100 µM (inactive)

Entry CCCC(=O)n1[nH]c(=O)n(-c2ccc(Cl)cc2)c1=O — recorded GI50 = > 100 µM (inactive)

// GI50 value for CCC(=C(c1ccc(OCc2ccccc2)cc1)c1ccc(OCc2ccccc2)cc1)c1ccc(OC)cc1 : > 100 µM (inactive)

For C/C(=N\NS(=O)(=O)c1ccc(C)cc1)C(CN1CCOCC1)C(c1ccccc1)c1c(O)c2ccccc2oc1=O (stereo not given) the compound record lists GI50 as 53.2 µM (inactive)

CC(=O)OCC1OC(O[C@@H]2C[C@H]3C(C)(C)[C@H](OC(C)=O)CC[C@]3(C)[C@H]3CC[C@]4(C)C(=CC[C@H]4[C@@H](C)C[C@@H](O)[C@H](O)C(C)(C)O)[C@@]32C)C(O)C(O)C1O (stereo not given in full) yielded GI50 of 18.3 µM (inactive)

Given item C[C@]12CCC(=O)C=C1CC[C@@H]1[C@@H]2CC[C@]2(C)C(=O)NC(=O)C[C@@H]12 , the value recorded as its GI50 is > 100 µM (inactive)

Looking up CC(C)(C)OC(=O)NC(Cc1ccc(OCc2ccccc2)cn1)C(=O)O (stereo not given) , I see its GI50 listed as > 100 µM (inactive)

Consider COC(=O)C#CC1(O)C=CC(=O)C=C1 . Its measured GI50 is 0.392 µM (active)

get_value(item= CN(C(=O)OC(C)(C)C)[C@H]1CCCC[C@H]1N1CCCC1 , readout=GI50) returns > 100 µM (inactive)

Sample CN(C)CCCSc1c2ccccc2nc2cc(NCC(=O)Nc3ccccc3-c3ccccc3NC(=O)CNc3ccc4c(SCCCN(C)C)c5ccccc5nc4c3)ccc12 ; GI50 observed: 71.4 µM (inactive)

Per the records, this compound ( [N-]=[N+]=CC(=O)C1(C(=O)C=[N+]=[N-])CC1 ) has GI50 equal to > 100 µM (inactive)

Form field GI50, entry C1CN2CCN3CCN4CCN1[PH]243 : > 100 µM (inactive)

Memo: COc1cc(CCc2ccc(OCCN(C)C)cc2)cc(OC)c1OC , reported GI50: 39.5 µM (inactive)

# compound O=C1Nc2cc(Cl)ccc2N=CC1NC(=O)C(c1ccccc1)c1ccccc1Cl (stereo not given) ; its GI50 = > 100 µM (inactive)

The reported value for COC(=O)c1cc(/C=C2\Cc3cc4c(cc3C2=O)CCC4)cc2c1CCC2 in terms of GI50 is > 100 µM (inactive)

Lab note: CC1=C[C@@H](C)C[C@]2(C)CC[C@H](O2)[C@]23CC[C@](C)(C[C@H](O2)[C@@H]2O[C@@](C)(CC2=O)[C@@H](O)[C@H]2CC[C@@]4(CCC[C@@H](O4)[C@H](C)C(=O)O[C@H]4C[C@H]([C@]5(O)OCC[C@H](C)[C@@H]5O)O[C@H]4C=C1)O2)O3 gave GI50 of 0.00692 µM (active)

Value of GI50 reported for the compound C[Si](C)(c1ccccc1)[C@H]1CCCC=C1CCNC1c2ccccc2CCc2ccccc21 is 52.1 µM (inactive)

Entry Oc1nc2c(c(-c3ccc(F)cc3)n1)COC/C2=C\c1ccc(F)cc1 — recorded GI50 = > 100 µM (inactive)

For record O=C1Nc2ccccc2N/C1=C\C(=O)c1ccccc1O the listed GI50 is > 100 µM (inactive)

Field GI50 (entry CC(=O)Nc1cccc(N2C(=O)/C(=C\c3cccc(Oc4ccccc4)c3)S(=O)(=O)C2c2ccccc2)c1 (stereo not given) ) reads 26.7 µM (inactive)

The reported numbers originate from ChEMBL document CHEMBL1201862.
